Data provenance is the supplement of paper PMC12042874.

- MEASUREMENT PROTOCOL: amyloid nucleation score (Sup35N fusion, yeast selection) (log enrichment); library NNK1; higher = more nucleation; inactive = no reads after selection;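 further: zero at mode of non-aggregating sequences after 7 days selection at 30°C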
PROPERTY MEASURED: amyloid nucleation score
Respond using a number only.

Take a look at these entries with their results.
I am curious: what amyloid nucleation score value has been reported for `QFRICVAPEFFGRKSLRASD` ?
0.445

I am curious: what amyloid nucleation score value has been reported for `NWEWAFRCPLWCLWDYRSTM` ?
0.751

I am curious: what amyloid nucleation score value has been reported for `MFDGEIFSYFNCTIV` ?
5.67

I am curious: what amyloid nucleation score value has been reported for `LDHNGEGFFFKGSLFVNCLA` ?
-0.912

I am curious: what amyloid nucleation score value has been reported for `ISGYQS` ?
0.088

I am curious: what amyloid nucleation score value has been reported for `APVVGTNSTTGEYSLTPSSW` ?
0.741

I am curious: what amyloid nucleation score value has been reported for `FEYVIPRVTKIVRSTDRRGS` ?
-0.548

I am curious: what amyloid nucleation score value has been reported for `SSVCFVNRGSWPYSKVFNGC` ?
-0.019

Next:
I am curious: what amyloid nucleation score value has been reported for `FQSSNSSYITIHYCLVGRFT` ?
6.01

I am curious: what amyloid nucleation score value has been reported for `TGLWNRIEVPVDKTEAKQPV` ?
0.076

I am curious: what amyloid nucleation score value has been reported for `VYRVAKASM` ?
-0.35

I am curious: what amyloid nucleation score value has been reported for `GTLGSWSIIISLIRHSECLC` ?
-0.659

I am curious: what amyloid nucleation score value has been reported for `WCLESINFRRMCMASSG` ?
0.893

I am curious: what amyloid nucleation score value has been reported for `YSVSCSVF` ?
-0.341

I am curious: what amyloid nucleation score value has been reported for `ESFLASMLRIGMCLPKQVMW` ?
-0.096

I am curious: what amyloid nucleation score value has been reported for `ICIASFCKKNVTCGLIWLIV` ?
1.51

I am curious: what amyloid nucleation score value has been reported for `CTGSCVRRVCGGFIEADIRY` ?
-0.28
